Test system: Heart
Experiment: Antiarrhythmic activity in Hartley guinea pig atria assessed as change in spontaneous rate at 66.1 uM/l after 5 mins
Type: functional, Cavia porcellus
measurement_kind: Activity (%)

| compound | measurement_kind | observed_measurement |
| --- | --- | --- |
| COc1ccccc1C(=O)N[C@@H]1CCC[C@@H]2CCN(C)C[C@H]21 (mixture of isomers) | Activity | -25 |
| COc1ccc(C(=O)N[C@@H]2CCC[C@@H]3CCN(C)C[C@H]32)cc1 (mixture of isomers) | Activity | -21.5 |
| COc1ccccc1C(=O)N[C@@H]1CCC[C@@H]2CCN(C)C[C@@H]21 (mixture of isomers) | Activity | -25.5 |
| COc1ccc(C(=O)N[C@@H]2CCC[C@@H]3CCN(C)C[C@@H]32)cc1 (mixture of isomers) | Activity | -44.2 |
